Test: in vitro
Details: human, hela cells, % viability
parameter: viability at 28.5 h, 10 µM (%)
One number for each entry, in %.

// worked examples, viability at 28.5 h, 10 µM included
COc1ncc(-c2nccnc2NCc2ccc(F)cc2)c(OC)n1 [CBK037668] : 96.7
Cc1ccc(CCC2CCN(C(=O)c3ccc(O)nc3)CC2)cc1 [CBK296724] : 94.4
c1ccc(-c2oc3ncn4nc(COc5cccc6ccccc56)nc4c3c2-c2ccccc2)cc1 [CBK262898] : 99.9

List reported viability at 28.5 h, 10 µM for each of these compounds:
1. Cc1cc(C)c(NS(=O)(=O)c2ccc(NC(=S)Nc3ccc(S(N)(=O)=O)cc3)cc2)c(C)c1 [CBK267005]
2. Cc1ccccc1C(c1ncccc1C)N(C)C(=O)C1CCN(Cc2ccc(Cl)c(Cl)c2)CC1 (stereo not drawn) [CBK148366]
3. COCC(=O)NC1CC(C)(C)Cc2c1cnn2-c1ccc(C)cc1 (stereo not drawn) [CBK282866]
4. COc1cccc(Nc2cc(-c3ccc(CC(C)C)cc3)ncn2)c1 [CBK090745]
5. O=C(NC(=S)Nc1ccccc1)c1cncc(Br)c1 [CBK092040]
6. CN1C(=O)CC2(C1=O)C(=O)N(CCCn1c(=O)n(C)c3ccccc31)c1ccc(F)cc12 (stereo not drawn) [CBK075441]

Ans.
1: 94.2; 2: 92.2; 3: 118; 4: 110; 5: 91.2; 6: 110

====

Assay: in vitro
Settings: human, hela cells, % viability
So I've got a bunch of compounds here, and I need their viability at 28.5 h, 10 µM values.
Numbers only, in %.

List reported viability at 28.5 h, 10 µM for each of these compounds:
1. O=C(CSc1nnc2sc3ccccc3n12)N1N=CCC1c1ccccc1 (centres unmarked) [CBK266527]
2. NCCNc1cccc2c1ccn2S(=O)(=O)c1ccccc1 [CBK028470C]
3. Cc1nc2cccnc2n1CCNC(=O)Cc1cccs1 [CBK283592]
4. O=C(CN1CCOCC1)NCCNc1c(Cl)c(Cl)c(Cl)c(Cl)c1Cl [CBK266851]
5. Cc1cc(Br)ccc1NC(=O)c1cnc2sccn2c1=O [CBK246520]
6. CC1CCCN(Cc2c(C3CCOCC3)[nH]c3ncccc23)C1 (centres unmarked) [CBK284687]
7. Cc1noc(C)c1C(=O)Nc1cnc(-c2cccc(C(F)(F)F)c2)c(-c2cccnc2)n1 [CBK036727]
8. CC(NC(=O)C1CCN(CCOc2ccccc2)CC1)c1ccccc1 (centres unmarked) [CBK148610]

Ans.
[87.1, 80.2, 107, 84.7, 112, 97, 96.8, 91.5]

List reported viability at 28.5 h, 10 µM for each of these compounds:
1. CS(=O)(=O)c1ccc(-c2ccc3ccc(=O)[nH]c3n2)cc1 [CBK073719]
2. COc1cc(F)ccc1-c1nc(NS(C)(=O)=O)cc2ccccc12 [CBK085751]
3. CS(=O)(=O)c1nc(-c2ccccc2)ns1 [CBK017338]
4. CC(=O)Nc1ccc(S(=O)(=O)NC2(C(F)(F)F)NC(=O)N(C3CCCC3)C2=O)cc1 (centres unmarked) [CBK268100]
5. Cc1c(CNC(=O)c2cc(-c3ccncc3)nc3ccc(Cl)cc23)cnn1C [CBK288627]
6. Cc1cccc(C)c1OCC(O)CNCCc1ccccc1 (centres unmarked) [CBK003072]
7. CCCCNC(=S)N1CC[C@@H]2CN(C)C[C@]2(c2ccc(OC)c(OC)c2)C1 [CBK075101T]
8. O=c1nc(NC2CCCCC2)sc2ncccc12 [CBK067024T]

Ans.
[86.7, 97.2, 90.6, 84.6, 99.5, 107, 100, 92.6]

List reported viability at 28.5 h, 10 µM for each of these compounds:
1. O=C(O)CCSc1nc2ccccc2[nH]1 [CBK262056]
2. Cc1ccc(SCC(=O)Nc2ccc(O)cc2C(=O)O)cc1 [CBK131703]
3. Cc1nn(CCCC(=O)O)c(C)c1I [CBK269796]
4. CCCCNC(=O)OC1CCN(CCc2ccccc2)CC1 [CBK022839C]

Ans.
[96.2, 118, 91.3, 89.2]

====

So I've got a bunch of compounds here, and I need their viability at 28.5 h, 10 µM values.
Assay: in vitro
Conditions: human, hela cells, % viability
Give bare numbers, in %.

Cc1c(C)n(Cc2cccnc2)c2ncn(C3CCCCCC3)c(=N)c12 : 85.9
Cc1noc(NS(=O)(=O)c2ccc(NC(=O)COc3cccc(Br)c3)cc2)c1C : 104
CC(C)[C@@H](CO)Nc1nccnc1-c1cccs1 : 93.7

List reported viability at 28.5 h, 10 µM for each of these compounds:
1. COc1ccc(C(=O)N2CCN(CC(=O)N3CCOCC3)CC2)cc1
2. O=C(Nc1cncc(N2CCNCC2)n1)c1coc2c1C(=O)CCC2 [CBK004229T]
3. OCCNc1nc(O)cc(C(F)(F)F)n1

Ans.
1: 108; 2: 96.8; 3: 99.5

====

System: B. adolescentis
Construct: DSM 20083
Assay: microbe, parasite or virus in culture
Parameters: Microbial growth in liquid dilution assay, OD600 relative to DMSO control
Conditions: Bifidobacterium adolescentis; estimated IC50; read-out: B. adolescentis, IC50 (µM) estimate
parameter: IC50 (µM)
One number for each entry, in µM.

Measured IC50, O=C(N/N=C\c1ccc([N+](=O)[O-])o1)c1nc(-c2ccccc2)cc(-c2ccccc2)n1 : 18.3

====

Test: in vitro
Conditions: human, hela cells, % viability
parameter: viability at 28.5 h, 10 µM (%)
One number for each entry, in %.

// worked examples, viability at 28.5 h, 10 µM included
Cc1ccc2c(c1)C(NC(=O)C1CC1)CC1(CCOCC1)O2 (stereo not shown) [CBK284879] : 93.4
CC(=O)c1ccc(OC(C)C)c(CSc2nc(O)cc(O)n2)c1 [CBK263446] : 91.5
CCC(CO)Nc1nccnc1-c1ccc(CO)cc1 (stereo not shown) [CBK036607] : 93
Cc1cc(C(=O)NCCc2ccc(S(N)(=O)=O)cc2)no1 [CBK268130] : 99.3

List reported viability at 28.5 h, 10 µM for each of these molecules:
1. CCOC(=O)[C@H]1CC[C@]2(CC1)CNC(=O)c1cc(Cl)ccc1O2 [CBK284849]
2. COc1ccc(-c2nccnc2N2CCN(C)CC2)cc1 [CBK038012]
3. Cc1cc(C(=O)N2CC[C@H]3NC(=O)c4ccccc4OCCCCC[C@H]3C2)no1 [CBK292005]
4. O=C1N=C(NC2C3CC4CC(C3)CC2C4)OC12CCN(CCC(F)(F)F)CC2 (stereo not shown) [CBK115640]
5. CC(C)(CC(=O)O)CC(=O)Nc1ccc(Cl)c(Cl)c1 [CBK086500]

Ans.
1: 89.9; 2: 113; 3: 91.8; 4: 91.4; 5: 92.6

====

Tested on: CTL2-GFP (C. trachomatis L2/434/Bu, GFP-expressing)
Construct: L2/434/Bu, GFP-expressing
Assay: microbe, parasite or virus in culture
Set-up: C. trachomatis growth in HeLa, dose-response, mean of bulk GFP fluorescence and imaged total inclusion area
Conditions: Chlamydia trachomatis, HeLa, 28.5 h; mean of GFP and inclusion area
parameter: IC50 (µM)
Numbers only, in µM.

// worked examples, IC50 included
CCC1C(c2ccc(C)cc2)=CCC(C(=O)NCCCN(C)C)C1C (stereo not shown) [c30e] : 3.07
C1=C(CCNCCc2ccccc2)c2ccccc2C12CCCC2 [c51e] : 8.3
c1c(C2CC2)[nH]c2nc(N3CCCC3)nc(N3CCCC3)c12 : 0.443

List reported IC50 for each of these compounds:
1. Cc1cccc(OCC(C)NC(=O)NCCc2cnn(C)c2)c1 (stereo not shown) [c47e]
2. O=C(c1ccc(-c2ccc(F)cc2)o1)N1C[C@H]2CC[C@](O)(c3ccc(F)cc3)[C@H]2C1
3. CN(C)c1ccc(Nc2nc(NCCO)c3ccccc3n2)cc1 [c27e]
4. Cc1noc(-c2ccc3c(c2O)OCCO3)c1-c1ccc(Cl)cc1 [c20e]

Ans.
[6.59, 0.0961, 2.54, 1.39]

====

Test: in vitro
Design: Viability of infected HeLa host cells, resazurin conversion, bulk resorufin fluorescence relative to DMSO
Details: human, hela cells; bulk resorufin, mean of 3
So I've got a bunch of molecules here, and I need their viability at 28.5 h, 0.00125 µM values.
Numbers only, in %.

List reported viability at 28.5 h, 0.00125 µM for each of these molecules:
1. O=C(NCCCn1ccnc1)c1cc(-c2cccc(Br)c2)nc2ccccc12 [c50e]
2. COCC(=O)N[C@H]1C[C@H]2C(=O)Nc3ccc(/C=C/c4ccccc4)cc3C(=O)N2C1 [c25e]

Ans.
1: 90.8; 2: 103

List reported viability at 28.5 h, 0.00125 µM for each of these molecules:
1. O=[N+]([O-])c1ccc2[nH]c3c(c2c1)CCCC3NC1CCN(CCc2ccccc2)CC1 (stereo not shown) [c23e]
2. COc1ccc2cc3c(nc2c1)OC(=O)N(CC1CC1)C3 [c32e]
3. OCCNc1nc(Nc2ccc(Br)cc2)nc2ccccc12 [c17e]
4. O=C1C(NCCO)=C(Nc2cccc(Cl)c2)C(=O)c2ccccc21 [c45e]
5. CCOc1ccc2nc(NC(=N)N)nc(C)c2c1 [c37e]

Ans.
90.3
94.1
87.1
87.4
89.1

List reported viability at 28.5 h, 0.00125 µM for each of these molecules:
1. O=C(Nc1ccccc1N1CCCNCC1)c1ccc2ccccc2c1 [c29e]
2. Cc1noc(-c2ccc3c(c2O)OCCO3)c1-c1ccc(Cl)cc1 [c20e]
3. Fc1cc(Br)c(CNCc2ncc[nH]2)c(N2CCCCC2)c1F [c31e]

Ans.
1: 107; 2: 97; 3: 103
